A collection of sequences and their measured fraction ligated
# Test system: F1*sub RNA substrate (template-directed ligation)
# protocol.description: fraction ligated after 30 min (ligated reads / total reads); higher = more ligase activity; sequences stand for … in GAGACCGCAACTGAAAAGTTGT…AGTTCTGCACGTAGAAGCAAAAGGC
# stated.conditions: 42 °C
Response field accepts a number only; no unit should be typed.

Previously resolved entries follow.
> print(dat)
                             input.sequence  readout.number
1  TATCACTGCGAAGACACTTTGGATGGGTTGA [3d1329]           0.831
2  TATCCTTGTCGTAAGACACTTGGATGGTTGA [3d1101]          0.0445
3   TATACTTGCGTAAGAACTTTGGATGGGTTGA [3d818]           0.768

[in] Please tell me: fraction ligated of TATCACTGTCGTAAACACTTTGGATGGGTTA [3d1406] , system F1*sub RNA substrate (template-directed ligation)?
[out] 0.761

These data points were gathered from the supplement of paper PMC6755084.
